# credit: patent US7989466B2

- TEST_DETAILS: Mouse LD50 (modified LD50 technique)
- Type: in vivo
- TEST_CONDITIONS: in vivo, IV, read-out: LD50
Positions of bridges follow the written chain, without caps; N, C: chain ends. Non-standard residues stand in square brackets, D forms with d. Residues, ends and D or L forms follow the SMILES beside them.
READOUT: LD50 (mg/kg)
The reply should be a number in mg/kg, with the unit left off.

The value of LD50 measured for the compound CC[C@@H](C)[C@H]1NC(=O)[C@@H](CCC(N)=O)NC(=O)[C@H](N)CSSC[C@H](C(N)=O)NC(=O)[C@@H](CC(C)C)NC(=O)[C@@H](CC(=O)O)NC(=O)[C@H]2CCCN2C(=O)[C@@H](CCCCN)NC(=O)[C@@H](CCC(N)=O)NC(=O)[C@@H](CCCCN)NC(=O)[C@@H](Cc2c[nH]c3ccccc23)NC1=O (H-[dC][dQ][dI][dW][dK][dQ][dK][dP][dD][dL][dC]-NH2; disulfide 1-11; N-terminus assumed) turned out to be 569

---

- TEST_DETAILS: physchem
- TEST_CONDITIONS: pH 11, water
READOUT: solubility (mg/mL)
The reply should be a number in mg/mL, with the unit left off.

The value of solubility measured for the compound `C=CCCCCCCCCC(=O)N[C@H]1CCC(=O)NC1=O` turned out to be 5

---

- Tested on: SDF-1α induced THP-1 migration
- TEST_DETAILS: THP-1 trans-well migration assay, SDF-1α as chemoattractant
- Format: cell-based, human
- TEST_CONDITIONS: n.s. = no statistically significant inhibition (p > 0.05); read-out: ED50 versus SDF-1α, inhibition of THP-1 migration
READOUT: pEC50
Please treat pEC50 as minus the base-10 logarithm of the molar concentration.

* KQKWVQ [Peptide 3[7-12]] | 5.22

The value of pEC50 measured for the substance EICLDPKQKWVQ [Leu4peptide 3] turned out to be 5.52

The value of pEC50 measured for the substance CADPKQKWVQ [Peptide 3[3-12]] turned out to be 5.05

The value of pEC50 measured for the substance EICADP [Peptide 3[1-6]] turned out to be 4.72

The value of pEC50 measured for the substance EICADPKQKWVQ [peptide 3(1-12)[MCP-1]] turned out to be 5.00

The value of pEC50 measured for the substance EICADPSEEWVQ [Ser7Glu8Glu9pep3] turned out to be 5.30

The value of pEC50 measured for the substance EICADPKQKWIQ [Ile11peptide 3] turned out to be 5.15

The value of pEC50 measured for the substance EICLDPKQKWIQ [Leu4Ile11peptide 3] turned out to be 5.52

The value of pEC50 measured for the substance EICADPSQKWVQ [Ser7peptide 3] turned out to be 5.40

---

- TEST_DETAILS: in vivo
- TEST_CONDITIONS: female, Sprague-Dawley, rat, iv, 8.8 mg, dose excreted in urine over the first two hours, rats, 8.8 mg i.v.
Positions of bridges follow the written chain, without caps; N, C: chain ends. Non-standard residues stand in square brackets, D forms with d. Residues, ends and D or L forms follow the SMILES beside them.
READOUT: dose excreted

The value of dose excreted measured for the compound CC[C@@H](C)[C@H]1NC(=O)[C@@H](CCC(N)=O)NC(=O)[C@H](N)CSSC[C@H](C(N)=O)NC(=O)[C@@H](CC(C)C)NC(=O)[C@@H](CC(=O)O)NC(=O)[C@H]2CCCN2C(=O)[C@@H](CCCCN)NC(=O)[C@@H](CCC(N)=O)NC(=O)[C@@H](CCCCN)NC(=O)[C@@H](Cc2c[nH]c3ccccc23)NC1=O (H-[dC][dQ][dI][dW][dK][dQ][dK][dP][dD][dL][dC]-NH2; disulfide 1-11; N-terminus assumed) turned out to be > 55%
